# Test system: human muscarinic M1 receptor (Homo sapiens, UniProt P11229)
# Sequence (P11229 whole entry): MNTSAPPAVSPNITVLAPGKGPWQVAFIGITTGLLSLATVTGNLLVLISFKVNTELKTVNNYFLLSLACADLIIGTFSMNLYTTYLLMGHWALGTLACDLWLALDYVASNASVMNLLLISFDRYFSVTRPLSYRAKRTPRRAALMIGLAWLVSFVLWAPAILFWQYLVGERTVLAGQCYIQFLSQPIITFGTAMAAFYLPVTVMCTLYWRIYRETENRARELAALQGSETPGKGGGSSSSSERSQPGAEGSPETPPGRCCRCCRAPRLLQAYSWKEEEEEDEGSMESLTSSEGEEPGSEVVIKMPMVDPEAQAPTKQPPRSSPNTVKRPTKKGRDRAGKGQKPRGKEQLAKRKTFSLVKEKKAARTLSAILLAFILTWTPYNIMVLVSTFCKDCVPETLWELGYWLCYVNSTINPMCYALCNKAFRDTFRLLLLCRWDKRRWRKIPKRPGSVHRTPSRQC
# Protocol details: Alphascreen Surefire phospho-ERK1/2 functional assay, M1
# Type: cell-based
# Cond: CHO cells stably expressing human M1; agonist 5 min, 37° C.; read-out: pEC50 M1 (converted)
Measurement label: EC50 (nM)

Compound | Measurement label | Value measured
CCCC(=NOC)C1CCN([C@H]2CCCN(C(=O)OCC)CC2)CC1 (single isomer, unassigned) [(S)-1-3 Isomer 2] | EC50 | 251

[P] CCCON=C(C)C1CCN(C2CCCN(C(=O)OCC)CC2)CC1 (single isomer, unassigned) [1-8 Isomer 2 (racemic)]
[Q] CCOC(=O)N1CCCC(N2CCC(C(C#N)=NOC(C)C)CC2)CC1 (mixture of isomers) [4-1 Mixture of isomers]
Hi there, can you help? I need to know whether P or Q has lower measured EC50. To answer, give the label that identifies your chosen option.
Q

###

# Test system: human muscarinic M3 receptor (Homo sapiens, UniProt P20309)
# Construct: expressed in transfected cells
# Sequence (P20309 whole entry): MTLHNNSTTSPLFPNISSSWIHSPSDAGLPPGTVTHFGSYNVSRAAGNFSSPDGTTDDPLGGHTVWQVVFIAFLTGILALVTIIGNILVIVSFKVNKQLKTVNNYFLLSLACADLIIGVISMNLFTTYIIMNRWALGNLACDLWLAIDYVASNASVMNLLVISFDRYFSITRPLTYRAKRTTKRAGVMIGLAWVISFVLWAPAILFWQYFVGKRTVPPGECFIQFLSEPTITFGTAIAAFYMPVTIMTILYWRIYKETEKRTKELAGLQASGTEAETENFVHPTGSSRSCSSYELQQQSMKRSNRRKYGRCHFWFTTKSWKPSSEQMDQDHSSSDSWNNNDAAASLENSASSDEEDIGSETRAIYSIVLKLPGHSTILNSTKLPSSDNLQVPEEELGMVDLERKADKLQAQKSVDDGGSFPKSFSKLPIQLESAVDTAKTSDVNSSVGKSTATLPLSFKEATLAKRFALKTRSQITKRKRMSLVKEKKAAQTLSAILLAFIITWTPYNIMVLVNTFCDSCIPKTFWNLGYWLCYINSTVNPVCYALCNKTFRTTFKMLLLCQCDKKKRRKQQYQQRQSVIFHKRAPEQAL
# Protocol details: Alphascreen Surefire phospho-ERK1/2 functional assay, M3
# Format: cell-based
# Cond: CHO cells stably expressing human M3; agonist 5 min, 37° C.; read-out: pEC50 M3 (converted)
Measurement label: EC50

Compound | EC50
CCOC(=O)N1CCCC(N2CCC(C(=NOC)C(C)C)CC2)CC1 (single isomer, unassigned) [1-4 Isomer 1 (racemic)] | > 20 µM

// query EC50 value for entry CCOC(=O)N1CCC[C@H](N2CCC(C(CC)=NOC)CC2)CC1 (single isomer, unassigned) [(S)-1-2 Isomer 1]
> 20 µM

Similarly, CCCC(=NOC)C1CCN(C2CCCN(C(=O)OCC)CC2)CC1 (single isomer, unassigned) [1-3 Isomer 2 (racemic)] ?
> 20 µM

###

# Test system: human muscarinic M4 receptor (Homo sapiens, UniProt P08173)
# Construct: expressed in transfected cells
# Sequence (P08173 whole entry): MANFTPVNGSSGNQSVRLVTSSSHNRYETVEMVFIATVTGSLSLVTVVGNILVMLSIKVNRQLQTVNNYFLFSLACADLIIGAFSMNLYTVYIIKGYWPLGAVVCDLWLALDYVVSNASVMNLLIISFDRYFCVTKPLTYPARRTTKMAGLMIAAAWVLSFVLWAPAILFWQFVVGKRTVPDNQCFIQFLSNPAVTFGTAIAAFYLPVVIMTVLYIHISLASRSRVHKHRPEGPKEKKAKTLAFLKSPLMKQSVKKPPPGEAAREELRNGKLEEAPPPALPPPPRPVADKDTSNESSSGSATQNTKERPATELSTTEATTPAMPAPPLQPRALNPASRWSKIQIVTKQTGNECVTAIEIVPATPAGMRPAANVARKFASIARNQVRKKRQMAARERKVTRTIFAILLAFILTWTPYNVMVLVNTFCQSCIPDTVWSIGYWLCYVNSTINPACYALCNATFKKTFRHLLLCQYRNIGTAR
# Protocol details: Alphascreen Surefire phospho-ERK1/2 functional assay, M4
# Assay type: cell-based
# Cond: CHO cells stably expressing human M4; agonist 5 min, 37° C.; read-out: pEC50 M4 (converted)
Measurement label: EC50 (nM)

[I] CCCON=C(CC)C1CCN(C2CCCN(C(=O)OCC)CC2)CC1 (single isomer, unassigned) [1-11 Isomer 2 (racemic)]
[II] CCCON=C(C)C1CCN(C2CCCN(C(=O)OCC)CC2)CC1 (single isomer, unassigned) [1-8 Isomer 1 (racemic)]
[III] CCOC(=O)N1CCC[C@H](N2CCC(C(C)=NOC)CC2)CC1 (single isomer, unassigned) [(S)-1-1 Isomer 1]
Let's sort these by EC50, smallest first. Go ahead? The response must list the labels following the requested ordering.
I, III, II

###

# Test system: human muscarinic M1 receptor (Homo sapiens, UniProt P11229)
# Protocol details: Alphascreen Surefire phospho-ERK1/2 functional assay, M1
# Type: cell-based
# Cond: CHO cells stably expressing human M1; Emax compared with ACh
# Protocol: ERK1/2 phosphorylation is a downstream consequence of both Gq/11 and Gi/o protein coupled receptor activation, making it highly suitable for the assessment of M1, M3 (Gq/11 coupled) and M2, M4 receptors (Gi/o coupled), rather than using different assay formats for different receptor subtypes. […] Plates were incubated for 2 h with gentle agitation in the dark and then read on a PHERAstar plate reader. pEC50 and Emax figures were calculated from the resulting data for each receptor subtype.
Measurement label: % Emax cf. ACh, M1 (%)

[I] CCOC(=O)N1CCCC(N2CCC(C(CC)=NOC(C)C)CC2)CC1 (single isomer, unassigned) [1-12 Isomer 2 (racemic)]
[II] CCOC(=O)N1CCC2(CC(N3CCC(C(CC)=NOC)CC3)C2)C1 (single isomer, unassigned) [2-2 Isomer 3]
[III] CCOC(=O)N1CCC[C@H](N2CCC(C(CC)=NOC)CC2)CC1 (single isomer, unassigned) [(S)-1-2 Isomer 2]
[IV] CCOC(=O)N1CCCC(N2CCC(C(=NOC)C(C)C)CC2)CC1 (single isomer, unassigned) [1-5 Isomer 2 (racemic)]
Let's sort these by % Emax cf. ACh, M1, smallest first. Go ahead? The response must list the labels following the requested ordering.
II, III, I, IV
(II: 5%, III: 36%, I: 72%, IV: 105%)

FYI, the data here is from patent US11208396B2.
